- assay-system: T1, Formyl-Peptide Receptor 1 (UniProt P21462 1-350, limits assumed)
- T1 sequence (looked up): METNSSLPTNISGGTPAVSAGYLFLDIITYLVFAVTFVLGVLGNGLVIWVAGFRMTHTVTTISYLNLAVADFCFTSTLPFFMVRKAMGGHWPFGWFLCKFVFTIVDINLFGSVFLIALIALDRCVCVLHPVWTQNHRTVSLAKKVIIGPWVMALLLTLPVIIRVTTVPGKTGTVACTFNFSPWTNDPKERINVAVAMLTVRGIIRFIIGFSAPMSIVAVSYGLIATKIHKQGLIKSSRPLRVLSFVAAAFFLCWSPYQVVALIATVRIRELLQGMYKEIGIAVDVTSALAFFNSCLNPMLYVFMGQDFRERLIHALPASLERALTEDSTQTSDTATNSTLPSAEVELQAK
- assay-details: cell-based or functional assay
Bridges are numbered along the chain shown (N, C = ends). [ ]: non-standard residue; d: D form. Dab = NCC[C@H](N)C(=O)O
readout-label: β-Arrestin IC50 (nM)
Note: unit nM is implicit; provide only the numeric part.

[
  {
    "binder": "cyclo(YHKCHG[dP]WTVCYEK[dP]P) (disulfide 4-11; SMILES CC(C)[C@@H]1NC(=O)[C@H]([C@@H](C)O)NC(=O)[C@H](Cc2c[nH]c3ccccc23)NC(=O)[C@H]2CCCN2C(=O)CNC(=O)[C@H](Cc2c[nH]cn2)NC(=O)[C@@H]2CSSC[C@H](NC1=O)C(=O)N[C@@H](Cc1ccc(O)cc1)C(=O)N[C@@H](CCC(=O)O)C(=O)N[C@@H](CCCCN)C(=O)N1CCC[C@@H]1C(=O)N1CCC[C@H]1C(=O)N[C@@H](Cc1ccc(O)cc1)C(=O)N[C@@H](Cc1c[nH]cn1)C(=O)N[C@@H](CCCCN)C(=O)N2) [cyclo(-Tyr-His-Lys-Cys-His-Gly-^DPro-Trp-Thr-Val-Cys-Tyr-Glu-Lys-^DPro-Pro-)]",
    "observed-measurement": 232
  }
]

q: Quick one: β-Arrestin IC50 of cyclo(YH[Dab]CHG[dP]WTICYEK[dP]P) (disulfide 4-11) [cyclo(-Tyr-His-Dab-Cys-His-Gly-^DPro-Trp-Thr-Ile-Cys-Tyr-Glu-Lys-^DPro-Pro-)] ?
a: 290
